System: SF-268 CNS
Test: NCI tumour cell line growth inhibition, 48 h
measure_name: TGI

The cases that follow already have their TGI on record.
c1ccc2c3nnc(c2c1)SCCSCCCSCCS3 : > 100 µM
CCOC(=O)CCc1c(C)[nH]c2c(C)c3c([nH]c4ccc(Cl)cc43)c(C)c2c1=O : 76.7 µM
COC(=O)/C(=C\C(=O)c1ccc(Br)cc1)NN=C(c1ccccc1)c1ccccc1 : > 10 µM
Cc1ccccc1NC(=O)C(=O)Cc1cnc2ccccc2n1 : > 100 µM
Oc1[nH]c2ccc(Cl)cc2c1/C=c1/ccc2c(c1)N=C(c1cc(F)cc(F)c1)N=2 : > 100 µM
CCOC(=O)CNC(=O)C(CSC(=O)N(C)O)NC(=O)CCC(N)C(=O)O (stereo not given) : > 2000 µM

What value of TGI has been reported for the following compound? CCOc1ccc(NC(=O)CCC(=O)NN)cc1
> 100 µM

What value of TGI has been reported for the following compound? CC1CC(NN(C)C)C2(C(N)=O)C(N)=NC(=O)C12C#N (stereo not given)
> 100 µM

What value of TGI has been reported for the following compound? COc1c2ccoc2c(S(=O)(=O)Nc2ccc(Cl)cc2)c2oc(C)cc(=O)c12
> 100 µM

What value of TGI has been reported for the following compound? O=C1C2Nc3ccccc3SC2C(=O)N1c1cccc([N+](=O)[O-])c1 (stereo not given)
> 100 µM

What value of TGI has been reported for the following compound? COc1cc(NCc2ccc3n2-c2ccccc2OC3)cc(OC)c1OC
> 100 µM
